tested on: HEK-293T; assay: Incucyte cell viability with HEK293T; format: toxicity, cell-based; conditions: human, 6 h, 10 µM, compound concentration 10 uM, replicate number 1; note: unitless GR value; below 1 slowed growth and below 0 cell loss
Classify on Growth Rate using category 1 = under 0.2, category 2 = from 0.2 up to 0.7, category 3 = 0.7 and over

For orientation, consider the following solved cases.
{"columns": ["molecule", "qualitative_label"],
 "data": [
  ["O=C(O)CCCc1cc2cc(Cl)ccc2n1S(=O)(=O)c1ccc2ncsc2c1 [LANIFIBRANOR]", "category 3"],
  ["CNC(=O)c1cccc(-c2ccc3c(N4CCOC[C@@H]4C)nc(N4CCOC[C@@H]4C)nc3n2)c1 [VISTUSERTIB]", "category 1"],
  ["Cc1nc2c([nH]1)c(=O)n(C)c(=O)n2Cc1ccco1 [FURAFYLLINE]", "category 1"],
  ["C=CC(=O)Nc1cccc(C(=O)Nc2ccc(Nc3cc(-c4c(-c5ccc(F)cc5)nc(SC)n4C)ccn3)cc2)c1", "category 2"],
  ["O=C1Nc2ccc(C(=O)c3ccco3)cc2C1=Cc1cc(Cl)c(O)c(Cl)c1 [GW406108X]", "category 3"]
]}

## Input Dear colleague, I would appreciate it if you could identify the bin for Oc1cc2c(cc1O)CN(C(=S)NCCc1ccc(Cl)cc1)CCC2 [CAPSAZEPINE] and reply at your convenience.
## Output category 1

## Input Dear colleague, I would appreciate it if you could identify the bin for CC(=O)N1CCC(c2ccc(C(=O)NC3=NCCN3)cc2C(F)(F)F)CC1 [BI 0054] and reply at your convenience.
## Output category 2

## Input Dear colleague, I would appreciate it if you could identify the bin for Cc1nsc(Nc2cnc(C(F)(F)F)cn2)c1C(=O)Nc1ccc(O[C@H]2CCCN(CC(F)(F)F)C2)nc1 and reply at your convenience.
## Output category 1

## Input Dear colleague, I would appreciate it if you could identify the bin for O=C(O)c1ccc(OCCCc2ccc(OCCCCOC3CCCCC3)cc2)c(C(=O)NC2CCCC(C(=O)O)C2)c1 (stereo unspecified) and reply at your convenience.
## Output category 3

## Input Dear colleague, I would appreciate it if you could identify the bin for Fc1ccc(-c2c3cccc(C(F)(F)F)c3nn2Cc2ccc(F)cc2Cl)cc1 [LXR-623] and reply at your convenience.
## Output category 3

## Input Dear colleague, I would appreciate it if you could identify the bin for Cl.O=S(=O)(c1cccc2c(I)cccc12)N1CCCNCC1 and reply at your convenience.
## Output category 1

## Input Dear colleague, I would appreciate it if you could identify the bin for Nc1ncnc2[nH]c(-c3ccccc3)nc12 and reply at your convenience.
## Output category 3

* * *

system: U2OS; assay: Incucyte cell viability with U2OS; type: toxicity, cell-based; conditions: human, 0 h, 10 µM, compound concentration 10 uM, replicate number 2; note: unitless GR value; below 1 slowed growth and below 0 cell loss
Please mark 1 (yes) if the recorded Growth Rate is equal to or greater than 0.7, and 0 (no) if it falls below.

## Input Quick check: does CCC(C)(C)CC[C@H](NC(=O)N1CCOCC1)C(=O)NC1(C#N)CCN(C)CC1 have Growth Rate greater than or equal to 0.7?
## Output 0 (no)

## Input Quick check: does CN1CCCN(C(=O)c2cccc(-c3ccc(/C=C4/C(=O)Nc5ccc(Cl)cc54)o3)c2)CC1 have Growth Rate greater than or equal to 0.7?
## Output 0 (no)

## Input Quick check: does CC(C)c1ccc(CC(=O)N[C@H](C)c2ccc(OCC(F)(F)F)cn2)cc1 [SUVECALTAMIDE] have Growth Rate greater than or equal to 0.7?
## Output 0 (no)

## Input Quick check: does CCNC(=O)c1ccc2c(c1)NC(=O)/C2=C(\Nc1ccc(CN(C)C)cc1)c1ccccc1 have Growth Rate greater than or equal to 0.7?
## Output 1 (yes)

## Input Quick check: does OCC1OC(n2cnc3cc(Cl)c(Cl)cc32)C(O)C1O (stereo unspecified) have Growth Rate greater than or equal to 0.7?
## Output 1 (yes)
